- measurement.target: UniProt P08908
- Sequence (P08908 whole entry): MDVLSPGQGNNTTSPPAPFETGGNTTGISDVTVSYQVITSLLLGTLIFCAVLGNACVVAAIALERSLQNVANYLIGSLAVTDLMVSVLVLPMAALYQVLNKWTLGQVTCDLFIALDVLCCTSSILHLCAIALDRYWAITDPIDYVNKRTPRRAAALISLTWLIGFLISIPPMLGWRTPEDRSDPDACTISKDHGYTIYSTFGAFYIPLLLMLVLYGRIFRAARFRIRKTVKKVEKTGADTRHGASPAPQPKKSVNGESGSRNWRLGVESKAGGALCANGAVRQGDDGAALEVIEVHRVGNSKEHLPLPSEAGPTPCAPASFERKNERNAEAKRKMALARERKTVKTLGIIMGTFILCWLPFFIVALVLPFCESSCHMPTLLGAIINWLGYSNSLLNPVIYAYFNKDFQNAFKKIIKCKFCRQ
Provide the reported Ki of each item.
Number in nM, nothing else.

Data request: What value of Ki has been recorded for this entry: c1ccc(N2CC(CNCCCc3c[nH]c4ccccc34)Oc3ccccc32)cc1 (stereo unspecified)
Data returned: 75.8

Data request: Requested field: Ki. Item: CN1CC(CNCCc2c[nH]c3ccc(F)cc23)Oc2ccccc21 (stereo unspecified)
Data returned: 8.46

Data request: Query: Ki; subject: Fc1ccc2[nH]cc(CCNCC3CN(Cc4ccccc4)c4ccccc4O3)c2c1 (stereo unspecified)
Data returned: 7.25

Data request: Returns the measured Ki for the input compound. Input: c1ccc(CN2CC(CNCCCc3c[nH]c4ccccc34)Oc3ccccc32)cc1 (stereo unspecified)
Data returned: 76.1

Data request: // returns reported Ki for input CCCN1CC(CNCCc2c[nH]c3ccccc23)Oc2ccccc21 (stereo unspecified)
Data returned: 12.8

Data request: Given CC(C)N1CC(CNCCCc2c[nH]c3ccccc23)Oc2ccccc21 (stereo unspecified) , state its recorded Ki.
Data returned: 90.4
